Taken from PubChem BioAssay (EPA / NIEHS).

Read-out: E-selectin (Homo sapiens)
Test: BSK_3C_Eselectin: BioMAP Diversity Plus: 3C Assay for Eselectin Biomarker Activity (AID 2283015)
Settings: primary human endothelial cells (HUVEC); actives raise or lower the signal
Protocol: BSK_3C is a cell-based, multiplexed-readout assay that uses umbilical vein endothelium, a human vascular primary cell, with measurements taken at 24 hours after chemical dosing in a 96-well plate.BSK_3C_Eselectin is an assay component measured in the BSK_3C assay. It measures E-selectin antibody related to regulation of gene expression using ELISA technology.Data from the assay component BSK_3C_Eselectin was analyzed into 1 assay endpoint. […]
Calls of active or inactive are those of the source. Rule for the calls: active = hit-call score of the fitted dose curve at least 0.9, where 1 is the maximum; inactive = score below 0.9.
Lab note: assign the record to one of yes (1) (active), no (0) (inactive)

Study these solved cases before continuing.
1. CCOC(=O)C(C#N)=C(c1ccccc1)c1ccccc1
no (0)
2. CC=Cc1ccc(OCC)c(O)c1
no (0)
3. CCCCCC(C=O)=Cc1ccccc1
yes (1)
4. IC(I)I
no (0)
5. Oc1c(Cl)cc(Cl)c(Cl)c1Cc1c(O)c(Cl)cc(Cl)c1Cl
yes (1)
6. Clc1cc(Cl)c(-c2c(Cl)c(Cl)cc(Cl)c2Cl)cc1Cl
yes (1)

Record request — test call for CCCCCCCCCCCCCCCC(=O)OC/C=C(C)/C=C/C=C(C)/C=C/C1=C(C)CCCC1(C)C yes (1)

Lab log entry: CC(C=O)Cc1ccc(C(C)(C)C)cc1 (stereo unspecified) — outcome as called in the assay? yes (1)

Outcome? CSCCC=O no (0)

# outcome recorded in this test, key = CCCCCCC(CO)CCCC (stereo unspecified) no (0)

State the result this test recorded for c1ccc2cc(Nc3ccc(Nc4ccc5ccccc5c4)cc3)ccc2c1 . no (0)

For this compound, state the assay outcome: Cc1cc(CCC(=O)OCCOCCOCCOC(=O)CCc2cc(C)c(O)c(C(C)(C)C)c2)cc(C(C)(C)C)c1O no (0)

Which outcome was entered for the compound CCN(CC)C(=O)N(CC)CC in this test? no (0)
